The following compounds are listed with their measured DR4w4 binding data values.
TESTED TARGET: DRB1*0401 (DR4w4) (Homo sapiens, UniProt P01903+P01911, A100K/A169T/F76Y/I96L/K127E/L162R/M171V/N62H/P40V/Q125Y/R42H/S133A/S149N/S66Y/V115G/V209L/W38E)
PROCEDURE TEXT: HLA class II peptide binding assay, purified HLA
CONDITION LABEL: Table XIX, DR supermotif peptides; unit not given
I'd appreciate a reply containing only the number, no unit.

[
  {
    "CHEMICAL STRUCTURE": "CC[C@H](C)[C@H](NC(=O)[C@H](CCSC)NC(=O)[C@H](Cc1c[nH]c2ccccc12)NC(=O)[C@H](CS)NC(=O)[C@H](CCCCN)NC(=O)[C@@H](NC(=O)[C@H](CCSC)NC(=O)[C@@H](NC(=O)[C@H](CCSC)NC(=O)[C@H](Cc1ccc(O)cc1)NC(=O)[C@@H](NC(=O)[C@@H](N)CC(=O)O)C(C)C)[C@@H](C)CC)C(C)C)C(=O)N[C@@H](CC(=O)O)C(=O)N[C@@H](CO)C(=O)N[C@@H](CCC(=O)O)C(=O)O",
    "DR4w4 binding data": 0.0570
  }
]

Problem: GET /values?readout=DR4w4 binding data&item= CC[C@H](C)[C@H](NC(=O)[C@H](CCCNC(=N)N)NC(=O)CNC(=O)[C@H](CCCNC(=N)N)NC(=O)[C@@H](NC(=O)[C@@H](NC(=O)[C@H](CCC(N)=O)NC(=O)[C@H](CC(C)C)NC(=O)[C@H](CC(N)=O)NC(=O)[C@H](CCC(N)=O)NC(=O)[C@H](Cc1ccccc1)NC(=O)[C@@H](NC(=O)[C@H](CO)NC(=O)[C@@H](N)CC(C)C)C(C)C)C(C)C)[C@@H](C)CC)C(=O)N[C@@H](CC(C)C)C(=O)O
Result: 0.0670

---

TESTED TARGET: DRB1*1302 (DR6w19) (Homo sapiens, UniProt P01903+P01911, A100E/A169T/K41T/L162R/M171V/P40S/Q125H/Q178H/Q39Y/Q99D/R42S/S66N/T262R/V115G/W38E/Y61H)
Sequence (P01903 26-254 limits assumed, other chains not shown): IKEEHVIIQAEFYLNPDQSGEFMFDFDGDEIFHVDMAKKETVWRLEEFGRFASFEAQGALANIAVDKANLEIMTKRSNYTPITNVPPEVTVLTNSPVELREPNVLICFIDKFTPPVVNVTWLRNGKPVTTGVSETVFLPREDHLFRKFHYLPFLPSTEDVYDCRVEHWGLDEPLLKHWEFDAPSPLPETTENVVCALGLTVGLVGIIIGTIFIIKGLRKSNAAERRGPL
PROCEDURE TEXT: HLA class II peptide binding assay, purified HLA
CONDITION LABEL: Table XIX, DR supermotif peptides; unit not given
In this section, each of the compounds is paired with its reported DR6w19 binding data.
# answer = number (no unit)

Study these solved cases before continuing.
[
  {
    "CHEMICAL STRUCTURE": "CSCC[C@H](NC(=O)[C@@H](NC(=O)[C@H](Cc1ccc(O)cc1)NC(=O)[C@H](C)NC(=O)[C@H](CCC(=O)O)NC(=O)[C@@H](N)CC(=O)O)C(C)C)C(=O)N[C@@H](C)C(=O)NCC(=O)N[C@H](C(=O)NCC(=O)N[C@@H](CO)C(=O)N1CCC[C@H]1C(=O)N[C@@H](Cc1ccc(O)cc1)C(=O)N[C@H](C(=O)N[C@@H](CO)C(=O)O)C(C)C)C(C)C",
    "DR6w19 binding data": 0.0020
  },
  {
    "CHEMICAL STRUCTURE": "CC[C@H](C)[C@H](NC(=O)[C@H](CCCCN)NC(=O)[C@H](CCCCN)NC(=O)[C@@H](N)CS)C(=O)N[C@@H](Cc1ccccc1)C(=O)NCC(=O)N[C@@H](CO)C(=O)N[C@@H](CC(C)C)C(=O)N[C@@H](C)C(=O)N[C@@H](Cc1ccccc1)C(=O)N[C@@H](CC(C)C)C(=O)N1CCC[C@H]1C(=O)N[C@@H](CCC(=O)O)C(=O)N[C@@H](CO)C(=O)N[C@@H](Cc1ccccc1)C(=O)O",
    "DR6w19 binding data": 0.0034
  }
]

Note: attention shifts to another entry.
Problem: // query DR6w19 binding data value for entry CC[C@H](C)[C@H](NC(=O)CNC(=O)[C@H](Cc1ccccc1)NC(=O)[C@@H](NC(=O)[C@@H](NC(=O)CNC(=O)[C@H](CC(C)C)NC(=O)[C@@H](N)C(C)C)C(C)C)C(C)C)C(=O)N[C@@H](CC(C)C)C(=O)N[C@H](C(=O)N[C@@H](CCCCN)C(=O)N[C@@H](CCCNC(=N)N)C(=O)N[C@@H](CCCNC(=N)N)C(=O)N[C@@H](CCC(N)=O)C(=O)N[C@@H](CCC(N)=O)C(=O)O)[C@@H](C)CC
Result: 0.0150
